# Tested on: RPMI-8226 leukemia
# test: NCI tumour cell line growth inhibition, 48 h
measured_parameter: TGI

Worked set:
CC(=O)N(C(C)=O)c1ncc(-n2nc(-c3ccccc3)cc2-c2ccccc2)c(-c2ccccc2)n1 = > 10 µM
N=C(N)C1CN(CCc2c[nH]c3ccccc23)C(=O)NC1=O (configuration not stated) = > 100 µM
c1ccc(-c2nnc(-c3ccccn3)s2)nc1 = > 100 µM

response.value for C=CCc1c(O)c2c(c3oc(=O)cc(C)c13)CC(C)O2 (configuration not stated) (field: TGI) = > 100 µM

response.value for O=[N+]([O-])C[C@@]12O[C@]3(O)C4C5CC(C6C5C3C61)C42 (some centres not stated) (field: TGI) = > 100 µM

response.value for `Nc1ccc([N+](=O)[O-])cc1N=C/C=C/c1ccccc1` (field: TGI) = > 100 µM

response.value for O=C1CCC2(c3ccc(Cl)cc3)Nc3ncccc3N12 (configuration not stated) (field: TGI) = > 100 µM

* * *

Entries and their measured TGI follow.
# Test system: KM20L2 colon
# test: NCI tumour cell line growth inhibition, 48 h

Cc1c2n(c(=O)[nH]c1=O)C1OC(CO)C(O2)C1O (stereo unspecified) = > 100 µM
O=C1c2ccccc2C(=O)N1CCn1ccc(NC(c2ccccc2)(c2ccccc2)c2ccccc2)nc1=O = 27.5 µM
O=C(CCN(C(=O)O)S(=O)(=O)c1ccc(NC(=O)c2ccccc2)cc1)Nc1ccccc1 = > 100 µM
CC(C)N(C(=O)C12C3C4C1C1C4(C#N)C3C12C#N)C(C)C (stereo unspecified) = > 100 µM
C=CCc1c(O)c2c(c3oc(=O)cc(C)c13)CC(C)O2 (stereo unspecified) = > 100 µM

Lab note: compound `O=c1cc[nH]c(=O)[nH]1` tested on KM20L2 colon; recorded TGI was > 1000 µM

Lab note: compound `c1ccc2cc(-c3cc4ccccc4s3)ccc2c1` tested on KM20L2 colon; recorded TGI was > 100 µM

* * *

# System: RPMI-8226 leukemia
# test: NCI tumour cell line growth inhibition, 48 h
measured_parameter: TGI

Worked set:
COc1cccc(C2c3cc4c(cc3OC(N3CCCCC3)C2C)OCO4)c1O (stereo unspecified) = 12.3 µM
CCOC(=O)NC(Nc1ccc(C)cc1)(C(F)(F)F)C(F)(F)F = > 100 µM

response.value for `c1ccc(N=C(N2CCCC2)N(CCN2CCCC2)c2ccccc2)cc1` (field: TGI) = > 100 µM

response.value for `CO/N=C(\C)c1ccc(Nc2nc3ccccc3c3occc23)cc1` (field: TGI) = 43.4 µM

response.value for `O=[N+]([O-])c1ccc2[nH]c(=S)[nH]c(=S)c2c1` (field: TGI) = > 100 µM

response.value for `CCOC(=O)Nc1[nH]cc(-c2ccccc2)c1C#N` (field: TGI) = > 100 µM

* * *

# System: SF-295 CNS
# test: NCI tumour cell line growth inhibition, 48 h
Label 0.0 if TGI falls below 10 µM; label 1.0 in every other case.

Worked examples, 5 compounds total:
CCCCC#CC1=C(Br)C(=O)OC1 = 1.0
Brc1ccc2[nH]cc(-c3csc(-c4c[nH]c5ccccc45)n3)c2c1 = 0.0
[N-]=[N+]=Nc1c([N+](=O)[O-])c(=O)n(-c2ccccc2)c2ccccc12 = 1.0
CC(C)N(C(=O)C12C3C4C1C1C4(C#N)C3C12C#N)C(C)C (configuration not stated) = 1.0
Cc1ccc(C2SCC(=O)N2c2ccc(-n3c(-c4ccccc4)nc4ccccc4c3=O)cc2)cc1 (configuration not stated) = 1.0

**Q:** # check: TGI of `Cc1cc(C)c2c(n1)sc1c(Nc3ccc(Cl)cc3)ncnc12` is greater than or equal to 10 µM
**A:** 1.0

**Q:** # check: TGI of `CC[As](CC)SC[C@H](C)C(=O)N1CCC[C@H]1C(=O)O` is greater than or equal to 10 µM
**A:** 0.0

**Q:** # check: TGI of `Cc1cc(Nc2ccc(NC(=O)c3ccc(Nc4ccnc5ccccc45)cc3)cc2)nc(N)n1` is greater than or equal to 10 µM
**A:** 1.0

Recorded values, source PubChem BioAssay (NCI).
